Test system: deformed wing virus
ASSAY: Screen of plant compounds for effect on bee viral loads in live bees
Format: in vivo, honey bee
MEASUREMENT_CONDITIONS: live bees exposed to natural products derived from plants
MEASUREMENT_KIND: antiviral activity in live bee trials

In [3]: df
Out[3]:
                                   molecule       assayed_target               value
0  CC/C=C\CC1C(=O)CCC1CC(=O)OC (stereo not shown) [MeJA, Methyl jasmonate]  deformed wing virus  antiviral activity
1                             CCCCCCCC(=O)O  deformed wing virus  antiviral activity
2                  COc1cc(/C=C/C(=O)O)ccc1O  deformed wing virus  antiviral activity
3                       Cc1ccc(C(C)C)c(O)c1  deformed wing virus  antiviral activity
